Assay: qHTS Assay for Inhibitors of the ERK Signaling Pathway using a Homogeneous Screening Assay; Stimulation with EGF; note: nearly all actives have a fitted effect of over 55% in size
Details: HEK293-V1b, EGF-stimulated phospho-ERK AlphaScreen; series mostly up to 11.5 µM
Screen size: about 130,000 compounds; about 550 (0.42%) were called active. Another 4% or so got no clear call; they are omitted. Calls come from the whole dose curve; as a rule, active = well fitted inhibition curve with a large enough effect; inconclusive = small, poorly fitted or top-dose-only effect, or effect the other way; inactive = flat fitted curve, though single readings scatter. Shown is part of a subset that was picked to be rich in actives.
Write down the outcome that applies. Available outcomes: Y (active), N (inactive)

Qu. Query: recorded result category for Cc1ccnc(NC(=O)c2ccc(Cl)c([N+](=O)[O-])c2)c1 in this test
Ans. N

Qu. Dear colleague, could you share the recorded outcome for O=C(Nc1ccccc1Cl)/C(Cl)=C(\Cl)S(=O)c1ccccc1 (centres undefined) when you have a moment?
Ans. Y

More entries:
Qu. Hi team, can someone confirm the assay call for CCC(=O)OCCNc1nc(-c2ccccc2)nc2ccccc12 ?
Ans. N

Qu. I'd appreciate the recorded outcome for C/C(=N/NC(=O)CC(=O)N/N=C(\C)c1ccc([N+](=O)[O-])cc1)c1ccc([N+](=O)[O-])cc1 from this test.
Ans. N
